SYSTEM_NAME: PD-1 (human, UniProt Q15116 25-167, limits assumed)
Sequence (Q15116 25-167 limits assumed): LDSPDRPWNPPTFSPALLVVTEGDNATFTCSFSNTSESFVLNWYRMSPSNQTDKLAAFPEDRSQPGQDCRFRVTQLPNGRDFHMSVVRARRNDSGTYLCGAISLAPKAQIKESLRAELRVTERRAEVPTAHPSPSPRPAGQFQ
ASSAY_NOTES: HTRF
Kind request: treat 700 as inclusive, so PD1 Binding (HTRF signal) at 700 or higher is Yes, anything lower is No.

Illustrative cases are given below, each with its answer.
BINDER	ASSIGNED_CATEGORY
PD1-R07-A05 (scFv) scFv: QVQLVQSGAEVKKPGASVKVSCKASGYTFTTYYVHWVRQAPGQGLEWMGIINPSGGSTSYAQNFQGRVTMTRDTSTSTVYMELSSLRSEDTAVYYCASGWDVWGQGTTVTVSSASGGGGSGGGGSGGGGSHASEIVMTQSPATLSVSPGERATLSCRASQSVNTYLAWYQQKPGQAPRLLIYGASTRATGIPARFSGSGSGTEFTLTISSLQSEDFAVYYCQQYGSSPVTFGQGTRLEIK	No
PD1-IL2-R02-C02 (scFv, cell-free expressed, V5-tagged) scFv: QVQLVQSGAEVKKPGVSVKVSCKASGYTFPRSYIHWVRQAPGQGLEWMGWINPHSGDTYYAQNFQGRVTMTRDTSTSTVYMELSSLRSEDTAVYYCARDTGLGYYYGSGDFDYWGQGTLVTVSSASGGGGSGGGGSGGGGSHASDIQMTQSPSSLSASVGDRVTITCRASQSISRYLNWYQQKPGKAPKLLIYTASSLQSGVPSRFSGSGSGTDFTLTISSLQPEDFATYYCQQANRFPLTFGPGTKVDIK	Yes
PD1-IL2-R02-A08 (scFv) scFv: QVQLVQSGAEVKKPGASVKVSCKVSGYTFTSYDINWVRQAPGQGLEWMGWINPNSGDTGYAQKFQGRVTMTRDTSTSTVYMELSSLRSEDTAVYYCARDTGLGYYYGSGDFDYWGQGTLVTVSSASGGGGSGGGGSGGGGSHASDIQMTQSPSSLSASVGDRVTITCQASQDIHNYLNWYQQKPGKAPKLLIYDVSNLETGVPSRFSGSGSGTDFTLTISSLQPEDFATYYCQQAISFPLTFGGGTKVEIK	Yes

Does PD1-IL2-R06-E04 (scFv, cell-free expressed, V5-tagged) scFv: QVQLVQSGAEVKKPGASVKVSCKASGYTFTRYYIHWVRQAPGQGLEWMGWINAYNGDTNYAQKLQGRVTMTRDTSTSTVYMELSSLRSEDTAVYYCARDSYYYDSFDYWGQGTLVTVSSASGGGGSGGGGSGGGGSHASDIQMTQSPSSLSASVGDRVTITCRASQTITDWLAWYQQKPGKAPKLLIYGASNLQGGVPSRFSGSGSGTDFTLTISSLQPEDFATYYCQQYYSSWTFGQGTKVEIK have a reported PD1 Binding (HTRF signal) of at least 700?
No

Does PD1-IL2-R07-A04 (scFv) scFv: QVQLVQSGAEVKKPGASVKVSCKASGYTFTDYYMHWVRQAPGQGLEWMGIINPRAGYTSYALKFQGRVTMTRDTSTSTVYMELSSLRSEDTAVYYCTSGMDVWGQGTLVTVSSASGGGGSGGGGSGGGGSHASDIQMTQSPSSLSASVGDRVTITCRASQSISTWLAWYQQKPGKAPKLLIYAASSLQSGVPSRFSGSGSGTDFTLTISSLQPEDFATYYCQQSYSFPVTFGQGTKVEIK have a reported PD1 Binding (HTRF signal) of at least 700?
Yes

Data provenance is patent US20240024501A1.
